experimental_system: Muscarinic acetylcholine receptor M3 (Homo sapiens) (UniProt P20309)
Sequence (P20309 whole entry, looked up): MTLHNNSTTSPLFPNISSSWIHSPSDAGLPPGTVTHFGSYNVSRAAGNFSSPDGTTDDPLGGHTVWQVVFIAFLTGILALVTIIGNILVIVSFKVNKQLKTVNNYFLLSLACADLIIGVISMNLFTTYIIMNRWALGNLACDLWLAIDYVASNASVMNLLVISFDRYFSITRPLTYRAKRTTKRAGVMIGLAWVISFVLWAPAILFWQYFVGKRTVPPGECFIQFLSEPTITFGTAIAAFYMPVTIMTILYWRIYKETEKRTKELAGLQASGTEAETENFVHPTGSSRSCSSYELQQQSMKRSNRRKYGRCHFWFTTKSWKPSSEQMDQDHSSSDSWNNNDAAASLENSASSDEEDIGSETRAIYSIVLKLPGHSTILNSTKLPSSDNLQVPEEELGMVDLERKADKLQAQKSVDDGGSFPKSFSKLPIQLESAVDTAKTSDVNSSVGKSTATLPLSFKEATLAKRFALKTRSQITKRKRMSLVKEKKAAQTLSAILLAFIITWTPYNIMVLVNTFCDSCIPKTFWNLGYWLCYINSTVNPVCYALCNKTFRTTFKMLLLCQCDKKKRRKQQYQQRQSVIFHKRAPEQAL
test_details: Binding affinity at the unliganded human muscarinic acetylcholine receptor M3 was estimated as log affinity (log1/M)
measurement_type: Affinity

Affinity reported for this molecule COc1cc2c(cc1OC)[C@@]13CC[N+]4(Cc5ccccc5)CC5=CCO[C@H]6CC(=O)N2[C@H]1[C@H]6[C@H]5C[C@@H]34 (stereo partly drawn) : > 4

Affinity reported for this molecule C[N+]12CC[C@@]34c5ccccc5N5C(=O)C[C@@H]6OCC=C(C1)[C@H](C[C@@H]32)[C@@H]6[C@H]54 (stereo partly drawn) : < 4

Affinity reported for this molecule O=C1C[C@@H]2OCC=C3C[N+]4(Cc5ccc6ccccc6c5)CC[C@]56c7ccccc7N1[C@H]5[C@H]2[C@H]3C[C@@H]64 (stereo partly drawn) : < 5.8

###

experimental_system: Muscarinic acetylcholine receptor M3 (Homo sapiens)
test_details: Binding affinity at the NMS liganded human muscarinic acetylcholine receptor M3 was estimated as log affinity (log1/M)
Binary label based on Affinity with cut-off 5: below gives Y, not below gives N.

Request: Dear reviewer, please state whether O=C1C[C@@H]2OCC=C3C[N+]4([O-])CC[C@]56c7ccccc7N1[C@H]5[C@H]2[C@H]3C[C@@H]64 (stereo partly specified) has Affinity strictly beneath 5.
Result: Y

Request: Dear reviewer, please state whether O=C1C[C@@H]2OCC=C3C[N+]4(CC5CCCCC5)CC[C@]56c7ccccc7N1[C@H]5[C@H]2[C@H]3C[C@@H]64 (stereo partly specified) has Affinity strictly beneath 5.
Result: Y

Request: Dear reviewer, please state whether O=C1C[C@@H]2OCC=C3C[N+]4(Cc5ccc(-c6ccccc6)cc5)CC[C@]56c7ccccc7N1[C@H]5[C@H]2[C@H]3C[C@@H]64 (stereo partly specified) has Affinity strictly beneath 5.
Result: N

Request: Dear reviewer, please state whether O=C1C[C@@H]2OCC=C3C[N+]4(Cc5ccc([N+](=O)[O-])cc5)CC[C@]56c7ccccc7N1[C@H]5[C@H]2[C@H]3C[C@@H]64 (stereo partly specified) has Affinity strictly beneath 5.
Result: Y

Request: Dear reviewer, please state whether O=C1C[C@@H]2OCC=C3C[N+]4(Cc5cccc([N+](=O)[O-])c5)CC[C@]56c7ccccc7N1[C@H]5[C@H]2[C@H]3C[C@@H]64 (stereo partly specified) has Affinity strictly beneath 5.
Result: Y

Request: Dear reviewer, please state whether N#CC[N+]12CC[C@@]34c5ccccc5N5C(=O)C[C@@H]6OCC=C(C1)[C@H](C[C@@H]32)[C@@H]6[C@H]54 (stereo partly specified) has Affinity strictly beneath 5.
Result: Y

###

experimental_system: Muscarinic acetylcholine receptor M1 (Homo sapiens) (UniProt P11229)
Sequence (P11229 whole entry): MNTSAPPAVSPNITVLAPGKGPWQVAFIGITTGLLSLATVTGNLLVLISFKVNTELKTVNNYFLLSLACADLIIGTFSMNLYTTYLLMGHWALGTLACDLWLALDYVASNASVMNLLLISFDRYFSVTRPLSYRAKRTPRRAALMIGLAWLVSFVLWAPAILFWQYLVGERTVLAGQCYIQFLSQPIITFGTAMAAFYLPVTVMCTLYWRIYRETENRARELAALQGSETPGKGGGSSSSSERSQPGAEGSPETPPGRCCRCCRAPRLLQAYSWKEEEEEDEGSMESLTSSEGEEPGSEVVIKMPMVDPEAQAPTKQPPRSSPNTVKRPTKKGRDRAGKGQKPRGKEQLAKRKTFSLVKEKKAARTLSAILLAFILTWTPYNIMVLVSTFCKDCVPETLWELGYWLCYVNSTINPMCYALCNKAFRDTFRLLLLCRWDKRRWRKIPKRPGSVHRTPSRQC
test_details: Binding affinity at the unliganded human muscarinic acetylcholine receptor M1 was estimated as log affinity (log1/M)
measurement_type: Affinity

Affinity reported for this compound C[N+]12CC[C@@]34c5ccccc5N5C(=O)C[C@@H]6OCC=C(C1)[C@H](C[C@@H]32)[C@@H]6[C@H]54 (stereo partly drawn) : < 4.1

Affinity reported for this compound O=C1C[C@@H]2OCC=C3C[N+]4(Cc5cccc([N+](=O)[O-])c5)CC[C@]56c7ccccc7N1[C@H]5[C@H]2[C@H]3C[C@@H]64 (stereo partly drawn) : < 4.9

Affinity reported for this compound O=C1C[C@@H]2OCC=C3C[N+]4(Cc5ccc([N+](=O)[O-])cc5)CC[C@]56c7ccccc7N1[C@H]5[C@H]2[C@H]3C[C@@H]64 (stereo partly drawn) : < 4.8

Affinity reported for this compound O=C1C[C@@H]2OCC=C3C[N+]4(CCc5ccccc5)CC[C@]56c7ccccc7N1[C@H]5[C@H]2[C@H]3C[C@@H]64 (stereo partly drawn) : 4.9

Affinity reported for this compound COc1cc2c(cc1OC)[C@@]13CC[N+]4(N)CC5=CCO[C@H]6CC(=O)N2[C@H]1[C@H]6[C@H]5C[C@@H]34 (stereo partly drawn) : 3.8

Affinity reported for this compound O=C1C[C@@H]2OCC=C3C[N+]4(CC5CCCCC5)CC[C@]56c7ccccc7N1[C@H]5[C@H]2[C@H]3C[C@@H]64 (stereo partly drawn) : < 4.6

Affinity reported for this compound O=C1C[C@@H]2OCC=C3C[N+]4(Cc5ccc(-c6ccccc6)cc5)CC[C@]56c7ccccc7N1[C@H]5[C@H]2[C@H]3C[C@@H]64 (stereo partly drawn) : 5.7

Affinity reported for this compound O=C1C[C@@H]2OCC=C3C[N+]4(Cc5ccc6ccccc6c5)CC[C@]56c7ccccc7N1[C@H]5[C@H]2[C@H]3C[C@@H]64 (stereo partly drawn) : < 5.3

// provenance: ChEMBL document CHEMBL1132569
